- System: SW-620 colon
- METHOD NOTES: NCI tumour cell line growth inhibition, 48 h
OBSERVED PROPERTY: GI50

Incoming: What value of GI50 has been reported for the following compound? Nc1nc2ccccc2c2c1S(=O)(=O)c1ccc(Cl)cc1C2=O
Outgoing: 1.02 µM

Incoming: What value of GI50 has been reported for the following compound? C[C@@H](NC(=O)c1ccc(F)cc1)c1ccc2c(c1)CCN2C(=O)C1CCOCC1
Outgoing: > 100 µM

Incoming: Reported GI50, compound COc1ccc(-c2[nH]c3ccccc3c2/C=C(\C#N)S(=O)(=O)c2ccccc2)cc1 : ____
Outgoing: 0.503 µM

Incoming: // returns reported GI50 for input O=S(=O)(O)c1ccc2cc3nn(-c4ccc(/C=C/c5ccc(-n6nc7cc8ccc(S(=O)(=O)O)cc8cc7n6)cc5S(=O)(=O)O)c(S(=O)(=O)O)c4)nc3cc2c1
Outgoing: 63.2 µM

Incoming: # GI50 lookup, item Cc1ccc(Cl)cc1-n1c(C)nc2c(cnn2-c2ccnc3c(C(F)(F)F)cccc23)c1=O
Outgoing: > 100 µM

Further cases:
Incoming: What value of GI50 has been reported for the following compound? COc1ccc(/C=N\Nc2nc(SCC(C)C)nc(-c3ccc(OC)cc3)c2C#N)cc1
Outgoing: 5.15 µM

Incoming: # lookup: GI50 of N#Cc1cc2c(cc1Cl)Sc1nnc(Nc3cccc4ccccc34)n1S2(=O)=O
Outgoing: 3.61 µM

Incoming: What measured GI50 goes with CN1CCCC1c1cccnc1.O=C(O)c1ccccc1O.O=C([O-])c1ccccc1[OH2+].O=C([O-])c1ccccc1[OH2+].[Mn+2] (stereo not drawn) ?
Outgoing: 64.3 µM

====

Entries and their TGI values follow.
- Tested on: EKVX NSCLC
- METHOD NOTES: NCI tumour cell line growth inhibition, 48 h

Incoming: Could you share which TGI value was measured for CSC1=Nc2c(c(C)c(-c3ccccc3)n2COC(CO)CO)C2=NC(=O)CN12 ?
Outgoing: > 100 µM

Incoming: State the recorded TGI for this entry: O=C1/C(=C/c2cccs2)NC(=S)N1CN1CCCCC1
Outgoing: > 100 µM

Incoming: Given the compound CC(C)N(C(=O)C12C3C4C1C1C2C3C41C(=O)N(C(C)C)C(C)C)C(C)C (centres undefined) , what is its reported TGI?
Outgoing: > 50 µM

Incoming: Which value of TGI has been reported for COc1ccc(OC)c(Cc2cnc3nc(N)nc(N)c3c2C)c1 in the records?
Outgoing: > 83.3 µM

Incoming: Any idea what TGI was measured for C=CCNC(=O)CN(CC(=O)OC)C1CCCCC1N(CC(=O)OC)CC(=O)OC (centres undefined) ?
Outgoing: > 100 µM

***
Incoming: For CC1CCC2C(CN(CC3=C(C(F)(F)F)OC4OC5(C)CCC6C(C)CCC3C46OO5)CC3=C(C(F)(F)F)OC4OC5(C)CCC6C(C)CCC3C46OO5)=C(C(F)(F)F)OC3OC4(C)CCC1C32OO4 (centres undefined) , what is its reported TGI?
Outgoing: 49.2 µM

Incoming: I'd like to know its TGI. The compound in question is C[C@@H](NC(=O)c1ccc(F)cc1)c1ccc2c(c1)CCN2C(=O)C1CCOCC1
Outgoing: > 100 µM

Incoming: Fill blank: measured TGI of the compound O/N=C1/CCCc2nonc21 is ____.
Outgoing: > 100 µM

Incoming: Need TGI of O=C(O)C12CC3CC(C1)C2C=C3P(=O)(O)O (centres undefined) , thanks.
Outgoing: > 100 µM

Incoming: Would you mind telling me what TGI value was observed for Nc1nc2ncn(CC(O)CO)c2c(=O)[nH]1 (centres undefined) ?
Outgoing: > 100 µM

Incoming: Can you share its TGI? I mean this compound: COC1=C(OC)C(=O)C(CCCCCCCCCCO)=C(C)C1=O
Outgoing: 21.8 µM

Incoming: Would you kindly share the measured TGI for COc1cc(C(=O)C2CC3(CCC2(O)c2cc(OC)c(OC)c(OC)c2)CC(=O)Nc2ccccc2C3=O)cc(OC)c1OC (centres undefined) ?
Outgoing: > 100 µM

Incoming: Dear colleague, I am looking for the recorded TGI of the following compound: O=C1/C(=C/c2ccccc2O)N=C(c2ccccc2)N1c1cc(C(F)(F)F)ccc1Cl
Outgoing: > 100 µM

Incoming: Look up TGI for this compound: O=C(NCCCCCCCN1CCCCCCC1)C(C1CCCCC1)C1CCCCC1
Outgoing: 18.9 µM

====

Measured TGI values are reported for all entries that follow.
- System: SK-OV-3 ovarian
- METHOD NOTES: NCI tumour cell line growth inhibition, 48 h
Record the value in µM, omitting the unit from your answer.

Here is how some compounds turned out for TGI.
Incoming: Reported TGI, compound COC1=C(OC)[C@]2(OC)c3c(O)c(OC)c4c(c3O[C@@]23O[C@@H](c2ccccc2)CC=C3C1=O)[C@@H](OC)C[C@H](c1ccccc1)O4 : ____
Outgoing: 3.56

Incoming: Returns the measured TGI for the input compound. Input: C=CC(=O)N[C@@H](/C=C/C(=O)OCC)Cc1ccc(-c2cc(Cl)cc(Cl)c2)cc1
Outgoing: 63.1

Incoming: Which TGI is reported for this compound? O=c1ccc2ccccc2c2ccccc12
Outgoing: 13

New cases:
Incoming: Return reported TGI; argument: C=C1C(=O)O[C@H]2[C@H]1CC/C(COC(=O)NCc1c[nH]c3ccc(F)cc13)=C\CC[C@@]1(C)O[C@@H]21
Outgoing: 23.1

Incoming: # get_value(readout='TGI', item= NC(=O)c1sc2nc3ccccc3n2c1N )
Outgoing: 89.4

====

- System: UACC-62 melanoma
- METHOD NOTES: NCI tumour cell line growth inhibition, 48 h
OBSERVED PROPERTY: TGI

Incoming: UACC-62 melanoma / TGI / Nc1c(Cl)cc(-c2nc3ccccc3s2)cc1Cl : value?
Outgoing: > 100 µM

Further cases:
Incoming: Request - read-out TGI | tested on UACC-62 melanoma | molecule S=C(NCc1ccc2c(c1)OCO2)N1CCN(c2ncnc3c2oc2ccccc23)CC1
Outgoing: > 100 µM

Incoming: Notebook entry, UACC-62 melanoma assay: TGI of COc1ccc(C(=O)Oc2c(C#N)sc3c2c(=O)n(-c2ccccc2)c(=S)n3-c2ccccc2)cc1 = ?
Outgoing: 24.5 µM

Incoming: Value wanted: TGI (UACC-62 melanoma) of entry COc1cc(-c2ncn(/C=C\c3nnco3)n2)cc(C(F)(F)F)c1
Outgoing: 13.8 µM

Incoming: Recorded TGI for CC(C)(C)c1cc(C(=O)O)c2c(c1)C(=O)OC2(c1ccccc1)c1ccccc1C(=O)O (configuration not stated) with UACC-62 melanoma, please?
Outgoing: > 100 µM

Incoming: Kindly state the measured TGI obtained for CNC(=O)CCCNC(=O)CCCC(=O)OC with UACC-62 melanoma.
Outgoing: > 100 µM

====

- Tested on: NCI-H23 lung
- METHOD NOTES: NCI tumour cell line growth inhibition, 48 h
OBSERVED PROPERTY: TGI

Incoming: Short answer please: TGI, NCI-H23 lung, entry C/C(=N\NC(=S)Nc1ccc([N+](=O)[O-])cc1)c1nc2ncccc2[nH]1
Outgoing: 4.14 µM

Incoming: Query TGI on NCI-H23 lung for Fc1ccc2nc(-c3nc(-c4ccccc4)n4ccccc34)[nH]c2c1
Outgoing: 17 µM

Incoming: Short answer please: TGI, NCI-H23 lung, entry Cc1ccc(S(=O)(=O)NC(=O)OC23COCN2COC3)cc1
Outgoing: > 100 µM

Incoming: What reported TGI corresponds to NC(CCCCNCc1ccccc1O)C(=O)O (stereo unspecified) on NCI-H23 lung?
Outgoing: > 100 µM

Incoming: Any idea what TGI came out for S=C(NCc1ccc2c(c1)OCO2)N1CCN(c2ncnc3c2oc2ccccc23)CC1 on NCI-H23 lung?
Outgoing: > 100 µM

Incoming: Please provide the recorded TGI for O=C(CO)C1CC2C=CC1C2 (stereo unspecified) , tested on NCI-H23 lung.
Outgoing: > 100 µM

Incoming: Form field - read-out: TGI; system: NCI-H23 lung; submitted item: FC(F)(F)c1cccnc1Sc1nc2ccccc2s1
Outgoing: > 100 µM

Incoming: # returns recorded TGI (system: NCI-H23 lung) for C/C(N)=N/OCc1nc(C)no1
Outgoing: > 100 µM

Incoming: Value wanted: TGI (NCI-H23 lung) of entry C=C1C2CCC3(CCC4C5(C)CCCC4(C=[N+](CCO)C5)C3C2)C1O (stereo unspecified)
Outgoing: > 100 µM

Incoming: What reported TGI corresponds to CS(=O)(=O)C1(Br)S(=O)(=O)OCCOS1(=O)=O on NCI-H23 lung?
Outgoing: > 100 µM

Incoming: Tell me reported TGI for Cn1nc(-c2ccccc2)c(C(=O)/C=C/c2ccc(Cl)cc2)c(N2CCOCC2)c1=O , tested with NCI-H23 lung.
Outgoing: 8.25 µM

Incoming: Entry O=c1[nH]c(=S)[nH]c(-c2ccccc2)c1Cc1c(O)ccc2ccccc12 , system NCI-H23 lung: what TGI was measured?
Outgoing: 90.6 µM

Incoming: Please provide the recorded TGI for c1cc(CN2CCNCCNCCNCC2)cc(CN2CCNCCNCCNCC2)c1 , tested on NCI-H23 lung.
Outgoing: > 100 µM

Incoming: Please tell me: TGI of COc1ccc2nc3cc(Cl)ccc3c(N3CCN(c4ccnc(N5CCN(C)CC5)n4)CC3)c2c1 , system NCI-H23 lung?
Outgoing: 4.17 µM

Incoming: Kindly state the measured TGI obtained for C[C@H]1CN(C2COC2)CCN1c1ccc(Nc2cc(-c3ccnc(N4CCn5c(cc6c5CC(C)(C)C6)C4=O)c3CO)cn(C)c2=O)nc1 with NCI-H23 lung.
Outgoing: > 100 µM

Incoming: Record lookup: for NCI-H23 lung, what TGI belongs to CC1=NNC(=S)NCCCN2CCN(CCCNC(=S)NN=C(C)C=NNC(=S)NCCCN3CCN(CCCNC(=S)NN=C1)CC3)CC2 ?
Outgoing: > 100 µM

Incoming: Hi! What's the reported TGI for CC(=O)N(CC(=O)C(=O)NNc1ccoc1)c1ccc(Cl)cc1 on NCI-H23 lung?
Outgoing: > 100 µM

Incoming: Give the reported TGI for CN1CCCC1c1cccnc1.O=C(O)c1ccccc1O.O=C([O-])c1ccccc1[OH2+].O=C([O-])c1ccccc1[OH2+].[Mn+2] (stereo unspecified) (system: NCI-H23 lung).
Outgoing: > 100 µM
